Catalogue of GI50 readings, one per entry.
- Tested on: RPMI-8226
- testProtocol: NCI-60 five-dose SRB assay
- Format: cell-based
- conditions: Homo sapiens; RPMI-8226, Leukemia, five-dose test
metric: GI50 (µM)

>  <compound>
COc1cccc2nc(Nc3cccc(NC(=O)c4ccc(CN5CCCN(C)CC5)c(C(F)(F)F)c4)c3)ccc12 [Compound 14b]

>  <metric>
GI50

>  <recordedMeasurement>
1.93

$$$$
>  <compound>
COc1cccc2nc(Nc3ccc(F)c(NC(=O)c4ccc(CN5CCN(C)CC5)c(C(F)(F)F)c4)c3)ccc12 [Compound 15a]

>  <metric>
GI50

>  <recordedMeasurement>
9.3

$$$$
>  <compound>
COc1cccc2nc(Nc3cccc(NC(=O)c4ccc(CN5CCN(C)CC5)c(C(F)(F)F)c4)c3)ccc12 [Compound 14a]

>  <metric>
GI50

>  <recordedMeasurement>
2.78

$$$$
>  <compound>
CCN1CCN(Cc2ccc(C(=O)Nc3cccc(Nc4ccc5c(OC)cccc5n4)c3)cc2C(F)(F)F)CC1 [Compound 14c]

>  <metric>
GI50

>  <recordedMeasurement>
2.24

$$$$
>  <compound>
CN1CCCN(Cc2ccc(C(=O)Nc3cccc(Nc4ccc5cc(O)ccc5n4)c3)cc2C(F)(F)F)CC1 [Compound 18b]

>  <metric>
GI50

>  <recordedMeasurement>
11.4

$$$$
>  <compound>
CN1CCN(Cc2ccc(C(=O)Nc3cccc(Nc4ccc5c(O)cccc5n4)c3)cc2C(F)(F)F)CC1 [Compound 17a]

>  <metric>
GI50

>  <recordedMeasurement>
2.92

$$$$
>  <compound>
CN1CCCN(Cc2ccc(C(=O)Nc3cccc(Nc4ccc5c(O)cccc5n4)c3)cc2C(F)(F)F)CC1 [Compound 17b]

>  <metric>
GI50

>  <recordedMeasurement>
2.89

$$$$
>  <compound>
CN1CCN(Cc2ccc(C(=O)Nc3cccc(Nc4ccc5cc(O)ccc5n4)c3)cc2C(F)(F)F)CC1 [Compound 18a]

>  <metric>
GI50

>  <recordedMeasurement>
2.65

$$$$
>  <compound>
COc1ccc2nc(Nc3cccc(NC(=O)c4ccc(CN5CCN(C)CC5)c(C(F)(F)F)c4)c3)ccc2c1 [Compound 16a]

>  <metric>
GI50

>  <recordedMeasurement>
3.14

$$$$

* * *

// GI50 lookup, one value per entry
- System: RXF 393
- testProtocol: NCI-60 five-dose SRB assay
- Format: cell-based
- conditions: Homo sapiens; RXF 393, Renal cancer, five-dose test

>  <molecule>
COc1cccc2nc(Nc3cccc(NC(=O)c4ccc(CN5CCCN(C)CC5)c(C(F)(F)F)c4)c3)ccc12 [Compound 14b]

>  <unitOfMeasure>
µM

>  <GI50>
1.66

$$$$
>  <molecule>
COc1ccc2nc(Nc3cccc(NC(=O)c4ccc(CN5CCN(C)CC5)c(C(F)(F)F)c4)c3)ccc2c1 [Compound 16a]

>  <unitOfMeasure>
µM

>  <GI50>
1.75

$$$$
>  <molecule>
COc1cccc2nc(Nc3cccc(NC(=O)c4ccc(CN5CCN(C)CC5)c(C(F)(F)F)c4)c3)ccc12 [Compound 14a]

>  <unitOfMeasure>
µM

>  <GI50>
1.73

$$$$
>  <molecule>
CN1CCN(Cc2ccc(C(=O)Nc3cccc(Nc4ccc5c(O)cccc5n4)c3)cc2C(F)(F)F)CC1 [Compound 17a]

>  <unitOfMeasure>
µM

>  <GI50>
1.66

$$$$
>  <molecule>
COc1cccc2nc(Nc3ccc(F)c(NC(=O)c4ccc(CN5CCN(C)CC5)c(C(F)(F)F)c4)c3)ccc12 [Compound 15a]

>  <unitOfMeasure>
µM

>  <GI50>
3.71

$$$$
>  <molecule>
CN1CCCN(Cc2ccc(C(=O)Nc3cccc(Nc4ccc5cc(O)ccc5n4)c3)cc2C(F)(F)F)CC1 [Compound 18b]

>  <unitOfMeasure>
µM

>  <GI50>
12.5

$$$$
>  <molecule>
CN1CCCN(Cc2ccc(C(=O)Nc3cccc(Nc4ccc5c(O)cccc5n4)c3)cc2C(F)(F)F)CC1 [Compound 17b]

>  <unitOfMeasure>
µM

>  <GI50>
1.85

$$$$
>  <molecule>
CN1CCN(Cc2ccc(C(=O)Nc3cccc(Nc4ccc5cc(O)ccc5n4)c3)cc2C(F)(F)F)CC1 [Compound 18a]

>  <unitOfMeasure>
µM

>  <GI50>
3.55

$$$$
>  <molecule>
CCN1CCN(Cc2ccc(C(=O)Nc3cccc(Nc4ccc5c(OC)cccc5n4)c3)cc2C(F)(F)F)CC1 [Compound 14c]

>  <unitOfMeasure>
µM

>  <GI50>
1.63

$$$$

* * *

- Test system: SN12C
- testProtocol: NCI-60 five-dose SRB assay
- Format: cell-based
- conditions: Homo sapiens, Renal cancer, five-dose test

>  <molecule>
CN1CCN(Cc2ccc(C(=O)Nc3cccc(Nc4ccc5c(O)cccc5n4)c3)cc2C(F)(F)F)CC1 [Compound 17a]

>  <GI50>
2.34 µM

$$$$
>  <molecule>
CCN1CCN(Cc2ccc(C(=O)Nc3cccc(Nc4ccc5c(OC)cccc5n4)c3)cc2C(F)(F)F)CC1 [Compound 14c]

>  <GI50>
3.62 µM

$$$$
>  <molecule>
CN1CCCN(Cc2ccc(C(=O)Nc3cccc(Nc4ccc5cc(O)ccc5n4)c3)cc2C(F)(F)F)CC1 [Compound 18b]

>  <GI50>
17.3 µM

$$$$
>  <molecule>
CN1CCN(Cc2ccc(C(=O)Nc3cccc(Nc4ccc5cc(O)ccc5n4)c3)cc2C(F)(F)F)CC1 [Compound 18a]

>  <GI50>
14.1 µM

$$$$
>  <molecule>
COc1cccc2nc(Nc3cccc(NC(=O)c4ccc(CN5CCCN(C)CC5)c(C(F)(F)F)c4)c3)ccc12 [Compound 14b]

>  <GI50>
1.63 µM

$$$$
>  <molecule>
CN1CCCN(Cc2ccc(C(=O)Nc3cccc(Nc4ccc5c(O)cccc5n4)c3)cc2C(F)(F)F)CC1 [Compound 17b]

>  <GI50>
1.83 µM

$$$$
>  <molecule>
COc1cccc2nc(Nc3cccc(NC(=O)c4ccc(CN5CCN(C)CC5)c(C(F)(F)F)c4)c3)ccc12 [Compound 14a]

>  <GI50>
1.71 µM

$$$$
>  <molecule>
COc1ccc2nc(Nc3cccc(NC(=O)c4ccc(CN5CCN(C)CC5)c(C(F)(F)F)c4)c3)ccc2c1 [Compound 16a]

>  <GI50>
5.49 µM

$$$$
>  <molecule>
COc1cccc2nc(Nc3ccc(F)c(NC(=O)c4ccc(CN5CCN(C)CC5)c(C(F)(F)F)c4)c3)ccc12 [Compound 15a]

>  <GI50>
13.4 µM

$$$$

* * *

- System: UACC-257
- testProtocol: NCI-60 five-dose SRB assay
- Assay type: cell-based
- conditions: Homo sapiens; UACC-257, Melanoma, five-dose test
- Description: The anticancer screening of target compounds over a full panel of 60 human cancer cell lines was carried out using Sulforhodamine B (SRB) assay at the National Cancer Institute (NCI), Bethesda, Maryland, USA, employing the standard protocol.

>  <compound>
CCN1CCN(Cc2ccc(C(=O)Nc3cccc(Nc4ccc5c(OC)cccc5n4)c3)cc2C(F)(F)F)CC1 [Compound 14c]

>  <GI50 (nM)>
1510

$$$$
>  <compound>
CN1CCN(Cc2ccc(C(=O)Nc3cccc(Nc4ccc5cc(O)ccc5n4)c3)cc2C(F)(F)F)CC1 [Compound 18a]

>  <GI50 (nM)>
7350

$$$$
>  <compound>
CN1CCN(Cc2ccc(C(=O)Nc3cccc(Nc4ccc5c(O)cccc5n4)c3)cc2C(F)(F)F)CC1 [Compound 17a]

>  <GI50 (nM)>
1920

$$$$
>  <compound>
CN1CCCN(Cc2ccc(C(=O)Nc3cccc(Nc4ccc5c(O)cccc5n4)c3)cc2C(F)(F)F)CC1 [Compound 17b]

>  <GI50 (nM)>
1600

$$$$
>  <compound>
COc1ccc2nc(Nc3cccc(NC(=O)c4ccc(CN5CCN(C)CC5)c(C(F)(F)F)c4)c3)ccc2c1 [Compound 16a]

>  <GI50 (nM)>
4350

$$$$
>  <compound>
CN1CCCN(Cc2ccc(C(=O)Nc3cccc(Nc4ccc5cc(O)ccc5n4)c3)cc2C(F)(F)F)CC1 [Compound 18b]

>  <GI50 (nM)>
14700

$$$$
>  <compound>
COc1cccc2nc(Nc3cccc(NC(=O)c4ccc(CN5CCN(C)CC5)c(C(F)(F)F)c4)c3)ccc12 [Compound 14a]

>  <GI50 (nM)>
1980

$$$$
>  <compound>
COc1cccc2nc(Nc3ccc(F)c(NC(=O)c4ccc(CN5CCN(C)CC5)c(C(F)(F)F)c4)c3)ccc12 [Compound 15a]

>  <GI50 (nM)>
16300

$$$$
>  <compound>
COc1cccc2nc(Nc3cccc(NC(=O)c4ccc(CN5CCCN(C)CC5)c(C(F)(F)F)c4)c3)ccc12 [Compound 14b]

>  <GI50 (nM)>
1860

$$$$

* * *

- System: K-562
- testProtocol: NCI-60 five-dose SRB assay
- Format: cell-based
- conditions: Homo sapiens, K562; K-562, Leukemia, five-dose test
GI50 less than 1 µM is Met; GI50 greater than or equal to 1 µM is Not met.

>  <molecule>
CCN1CCN(Cc2ccc(C(=O)Nc3cccc(Nc4ccc5c(OC)cccc5n4)c3)cc2C(F)(F)F)CC1 [Compound 14c]

>  <discreteLabel>
Not met

$$$$
>  <molecule>
CN1CCCN(Cc2ccc(C(=O)Nc3cccc(Nc4ccc5cc(O)ccc5n4)c3)cc2C(F)(F)F)CC1 [Compound 18b]

>  <discreteLabel>
Not met

$$$$
>  <molecule>
COc1ccc2nc(Nc3cccc(NC(=O)c4ccc(CN5CCN(C)CC5)c(C(F)(F)F)c4)c3)ccc2c1 [Compound 16a]

>  <discreteLabel>
Met

$$$$
>  <molecule>
CN1CCN(Cc2ccc(C(=O)Nc3cccc(Nc4ccc5cc(O)ccc5n4)c3)cc2C(F)(F)F)CC1 [Compound 18a]

>  <discreteLabel>
Not met

$$$$
>  <molecule>
CN1CCCN(Cc2ccc(C(=O)Nc3cccc(Nc4ccc5c(O)cccc5n4)c3)cc2C(F)(F)F)CC1 [Compound 17b]

>  <discreteLabel>
Not met

$$$$
